# Measurement target: human CYP2C9 (Homo sapiens)
# Assay summary: biochemical
# Details: CYP2C9 IC50
Counter-ions that a name gives are not always drawn.
Kindly state pIC50 for each of the entries shown.
In textbook form, pIC50 equals minus log to base ten of the concentration in mol/L.

# pIC50 lookup, item CCCCCCCCCCCCN [Dodecylamine hydrochloride]
5.18

Any idea what its pIC50 is? The compound is O=S1(=O)OCC2C(CO1)C1(Cl)C(Cl)=C(Cl)C2(Cl)C1(Cl)Cl (stereo not drawn) [Endosulfan sulfate]
4.73

Requested field: pIC50. Item: "c1ccc2cc3c(ccc4ccccc43)cc2c1"
4.44

---

# Measurement target: CYP3A4 (Homo sapiens, UniProt P08684)
# Sequence (P08684 whole entry): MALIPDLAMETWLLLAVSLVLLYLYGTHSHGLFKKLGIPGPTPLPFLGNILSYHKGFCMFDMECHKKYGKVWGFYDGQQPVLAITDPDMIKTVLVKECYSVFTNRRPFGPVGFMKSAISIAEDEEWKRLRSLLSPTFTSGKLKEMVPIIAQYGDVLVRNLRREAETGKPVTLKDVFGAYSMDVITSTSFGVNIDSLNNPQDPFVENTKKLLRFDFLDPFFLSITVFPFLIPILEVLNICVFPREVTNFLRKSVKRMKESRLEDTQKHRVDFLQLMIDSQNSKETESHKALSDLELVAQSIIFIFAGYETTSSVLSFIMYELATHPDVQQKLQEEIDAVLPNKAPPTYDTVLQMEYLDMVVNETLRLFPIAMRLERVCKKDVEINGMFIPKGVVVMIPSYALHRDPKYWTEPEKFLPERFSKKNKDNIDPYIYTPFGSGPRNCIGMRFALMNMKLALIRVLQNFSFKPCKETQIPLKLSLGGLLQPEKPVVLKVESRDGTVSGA
# Assay summary: biochemical
Counter-ions that a name gives are not always drawn.
Provide the recorded log10 of AC50 for the entries that follow.
Plainly stated, the numbers are log10 of AC50 given in µM.

I am curious: what log10 of AC50 value has been reported for CCCCCCCCCCOS(=O)(=O)O [Sodium decyl sulfate] ?
1.93

GET /values?readout=log10 of AC50&item= COC(=O)c1cccc(C(=O)OC)c1 [Dimethyl isophthalate]
1.72

GET /values?readout=log10 of AC50&item= CCCCCCCCCCCCN1CCCC1=O [1-Dodecyl-2-pyrrolidinone]
0.99

Consider the compound shown here: COC(=O)C(C)Oc1ccc(Oc2ncc(C(F)(F)F)cc2Cl)cc1 (centres unmarked) [Haloxyfop-methyl] What is its recorded log10 of AC50?
1.44

Name the reported log10 of AC50 value associated with the compound NS(=O)(=O)c1ccc(NCc2ccccc2)cc1 [Benzylsulfamide]
0.89

Dear colleague, I am looking for the recorded log10 of AC50 of the following compound: O=C(CCOCCOCCOCCOCCC(=O)Nc1c(I)cc(I)c(C(=O)O)c1I)Nc1c(I)cc(I)c(C(=O)O)c1I [Iodoxamic Acid]
0.75

Given CC(=O)OC(c1ccccc1)C(Cl)(Cl)Cl (centres unmarked) [2,2,2-Trichloro-1-phenylethyl acetate] , state its recorded log10 of AC50.
1.38

Any idea what its log10 of AC50 is? The compound is CCCCCCCCOS(=O)(=O)O [Sodium octyl sulfate]
1.80

Give its log10 of AC50 value. Item: O=P(c1ccccc1)(c1ccccc1)c1ccccc1 [Triphenylphosphine oxide]
1.57

Suppose we examine the compound Cc1ccnc2ccccc12 [Lepidine] ; what log10 of AC50 value has been reported?
1.49

Quick check: log10 of AC50 of CC(C)COC(=O)CCCCC(=O)OCC(C)C [Diisobutyl adipate] ?
1.07

---

# Measurement target: human CYP2C19 (Homo sapiens, UniProt P33261)
# Sequence (P33261 whole entry): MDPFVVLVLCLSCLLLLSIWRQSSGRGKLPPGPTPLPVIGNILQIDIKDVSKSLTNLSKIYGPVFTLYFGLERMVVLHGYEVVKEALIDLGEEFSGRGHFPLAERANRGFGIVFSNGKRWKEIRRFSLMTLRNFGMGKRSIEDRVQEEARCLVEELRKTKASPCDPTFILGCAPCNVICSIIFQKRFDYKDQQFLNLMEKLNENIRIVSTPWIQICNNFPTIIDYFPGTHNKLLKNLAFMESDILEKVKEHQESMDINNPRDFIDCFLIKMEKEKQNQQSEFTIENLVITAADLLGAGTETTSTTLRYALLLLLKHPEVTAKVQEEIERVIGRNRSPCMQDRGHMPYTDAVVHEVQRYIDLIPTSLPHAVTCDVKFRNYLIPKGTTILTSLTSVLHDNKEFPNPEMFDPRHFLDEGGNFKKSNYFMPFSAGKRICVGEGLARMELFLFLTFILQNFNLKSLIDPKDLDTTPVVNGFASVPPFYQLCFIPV
# Assay summary: biochemical
# Details: CYP2C19 IC50
Counter-ions that a name gives are not always drawn.
Experimental endpoint: pIC50
Please keep in mind that pIC50 is minus log10 of the molar concentration; only the number is needed.

Which value of pIC50 has been reported for "CCOC(=O)N(C)C(=O)CSP(=S)(OCC)OCC" in the records?
7.05

I'd like to know its pIC50. The compound in question is CC1(C)C2(Cl)C(Cl)C(Cl)C(Cl)(C(Cl)Cl)C1(Cl)C2Cl (stereo not drawn)
5.80

// pIC50 lookup, key: "CCOP(=S)(OCC)Oc1cc(-c2ccccc2)on1"
5.59

What pIC50 value was documented for this compound, "CC1=C(C)C(=O)C(CCCCC#CCCCC#CCO)=C(C)C1=O" ?
4.94

For the compound shown here, CC(CC1c2ccccc2CCc2ccccc21)CN(C)C (stereo not drawn) , give the reported pIC50.
5.08

Quick one: pIC50 of CN1CCCN(C(c2ccccc2)c2ccc(Cl)cc2)CC1 (stereo not drawn) ?
4.58

Need pIC50, item "c1ccc2c(c1)-c1cccc3cccc-2c13"
4.30

I'd like to know its pIC50. The compound in question is "CCOP(=S)(OCC)SCSP(=S)(OCC)OCC"
6.47

Record request: pIC50 value, item CCCCN(CCCC)CC(O)c1cc(Cl)cc2c1-c1ccc(Cl)cc1/C2=C/c1ccc(Cl)cc1 (stereo not drawn)
4.57

Return reported pIC50; argument: O=c1[nH]c2ccccc2n1CCCN1CCN(C(c2ccccc2)c2ccccc2)CC1 [Oxatomide]
4.48

For the compound "Cc1cc(C)c(N)cc1C" , what pIC50 is on record?
5.01

Sample CCN(CC)CCOC(=O)C(c1ccccc1)C1CCCCC1 (stereo not drawn) [Drofenine hydrochloride] — what was its pIC50?
4.73

// pIC50 lookup, key: "CCN(CC)CCOC(=O)C(C)(c1ccccc1)c1ccccc1"
4.91

Value lookup for pIC50; key = CCN(CC)CCOC(=O)C(Cc1cccc2ccccc12)CC1CCCO1 (stereo not drawn) [Nafronyl oxalate]
5.11

Value lookup for pIC50; key = CC(NCCC(c1ccccc1)c1ccccc1)c1ccccc1 (stereo not drawn) [Fendiline hydrochloride]
5.25

I'd like to know its pIC50. The compound in question is "CCOP(=S)(OCC)Oc1cnc2ccccc2n1"
6.33

For the compound CCOP(=S)(Oc1cnc(C(C)(C)C)nc1)OC(C)C (stereo not drawn) , what pIC50 is on record?
6.21

Quick check: pIC50 of CCCC(C(=O)OCCN(CC)CC)(c1ccccc1)c1ccccc1 [Proadifen hydrochloride] ?
4.72

---

Would you kindly list CYP1A2 Efficacy (in parenthesis) for each of these compounds?
# Measurement target: UniProtKB P05177
# Sequence (P05177 1-516): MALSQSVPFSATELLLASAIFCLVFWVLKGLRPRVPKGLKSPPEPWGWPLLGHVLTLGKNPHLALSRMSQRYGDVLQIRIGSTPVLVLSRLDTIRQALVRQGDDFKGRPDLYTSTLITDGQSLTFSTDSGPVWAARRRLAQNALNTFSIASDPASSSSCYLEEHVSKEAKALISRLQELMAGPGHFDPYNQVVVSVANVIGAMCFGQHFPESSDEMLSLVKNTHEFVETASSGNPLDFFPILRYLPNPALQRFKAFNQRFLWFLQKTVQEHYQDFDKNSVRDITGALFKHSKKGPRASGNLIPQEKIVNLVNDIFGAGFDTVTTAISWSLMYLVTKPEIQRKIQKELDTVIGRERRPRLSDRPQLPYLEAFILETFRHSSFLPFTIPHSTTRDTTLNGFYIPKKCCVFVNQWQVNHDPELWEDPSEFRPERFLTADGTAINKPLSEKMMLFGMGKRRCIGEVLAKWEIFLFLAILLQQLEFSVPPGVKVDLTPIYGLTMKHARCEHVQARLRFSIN
# Details: human

Sample "COP(=S)(OC)SCn1nnc2ccccc2c1=O" — what was its CYP1A2 Efficacy (in parenthesis)?
28.26 ± 0 (-93 ± 8) %

Name the recorded CYP1A2 Efficacy (in parenthesis) for CCCCC(C#N)(Cn1cncn1)c1ccc(Cl)cc1 (stereo not shown) .
33.28 ± 11.5 (-34 ± 3) %

Entry under review: "Brc1c2ccccc2cc2ccccc12" . Reported CYP1A2 Efficacy (in parenthesis)?
0.51 ± 0.11 (-99 ± 4) %

Look at this compound and give its reported CYP1A2 Efficacy (in parenthesis). COP(=S)(Oc1cc(Cl)c(Br)cc1Cl)c1ccccc1 (stereo not shown)
21.38 ± 6.3 (-109 ± 13) %

Need CYP1A2 Efficacy (in parenthesis) of "CCOP(=S)(OCC)Oc1cc(Cl)c(Br)cc1Cl" , thanks.
3.3 ± 0.22 (-98 ± 3) %

Look up CYP1A2 Efficacy (in parenthesis): CC(C)C1CCC(Cc2ccc(Cl)cc2)C1(O)Cn1cncn1 (stereo not shown)
35.41 ± 4.07 (-90 ± 1) %

# get_value(readout='CYP1A2 Efficacy (in parenthesis)', item= "O=C1c2ccccc2C(=O)C1C(=O)C(c1ccccc1)c1ccccc1" )
28.28 ± 11.08 (-93 ± 7) %

// CYP1A2 Efficacy (in parenthesis) lookup, key: "CCCN(CCc1cccs1)[C@H]1CCc2c(O)cccc2C1"
31.04 ± 3.57 (-46 ± 10) %

Which value of CYP1A2 Efficacy (in parenthesis) has been reported for "Brc1cc2ccccc2c2ccccc12" in the records?
0.32 ± 0.09 (-101 ± 1) %

Given FC(F)C(F)(F)OCC(Cn1cncn1)c1ccc(Cl)cc1Cl (stereo not shown) , state its recorded CYP1A2 Efficacy (in parenthesis).
6.09 ± 0.84 (-101 ± 7) %

I would be grateful if you could share the reported CYP1A2 Efficacy (in parenthesis) for CC(C1CC1)C(O)(Cn1cncn1)c1ccc(Cl)cc1 (stereo not shown) .
30.37 ± 9.95 (-33 ± 2) %

// query CYP1A2 Efficacy (in parenthesis) value for entry "O=S(=O)(c1ccc(Cl)cc1)c1cc(Cl)c(Cl)cc1Cl"
31.85 ± 3.66 (-38 ± 3) %

Given the compound "COc1c2ccoc2cc2oc(=O)ccc12" , what is its reported CYP1A2 Efficacy (in parenthesis)?
0.28 ± 0.03 (-96 ± 3) %

---

# Measurement target: human CYP2C9 (Homo sapiens, UniProt P11712)
# Sequence (P11712 whole entry): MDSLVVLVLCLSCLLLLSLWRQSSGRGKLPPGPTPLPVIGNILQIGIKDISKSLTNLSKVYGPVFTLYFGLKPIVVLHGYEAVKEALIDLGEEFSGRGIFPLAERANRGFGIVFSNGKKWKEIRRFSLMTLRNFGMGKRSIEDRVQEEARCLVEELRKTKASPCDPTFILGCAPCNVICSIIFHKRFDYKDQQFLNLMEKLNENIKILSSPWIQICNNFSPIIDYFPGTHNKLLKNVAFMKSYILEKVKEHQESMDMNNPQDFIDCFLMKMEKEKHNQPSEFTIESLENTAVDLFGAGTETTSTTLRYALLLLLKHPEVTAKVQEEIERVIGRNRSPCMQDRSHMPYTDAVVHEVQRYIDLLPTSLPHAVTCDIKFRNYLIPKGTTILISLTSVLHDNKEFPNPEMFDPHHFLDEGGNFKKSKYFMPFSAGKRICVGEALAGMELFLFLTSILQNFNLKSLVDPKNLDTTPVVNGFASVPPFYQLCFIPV
# Assay summary: biochemical
# Details: CYP2C9 IC50 (half-maximal inhibitory concentration)
pIC50: −log10 of the molar value. Structures can show the parent of a compound that is named as a salt.
Output Criterion met for pIC50 not less than 6; output Criterion not met otherwise.

Would you say N#CC(CCc1ccc(Cl)cc1)(Cn1cncn1)c1ccccc1 (centres unmarked) shows pIC50 at minimum 6?
Criterion not met

Does the molecule FC(F)C(F)(F)OCC(Cn1cncn1)c1ccc(Cl)cc1Cl (centres unmarked) have recorded pIC50 that is 6 or more?
Criterion not met

Has O[C@@H](COc1cccc2ncccc12)CN1CCN([C@@H]2c3ccccc3[C@@H]3[C@H](c4ccccc42)C3(F)F)CC1 [Zosuquidar trihydrochloride] a recorded pIC50 greater than or equal to 6?
Criterion not met

Is pIC50 at least 6? Consider N#C/C(=C1/SC[C@@H](c2ccc(Cl)cc2Cl)S1)n1ccnc1 [luliconazole, reference compound]
Criterion met

Does "O=C(CN1CCN(Cc2ccc3c(c2)OCO3)CC1)N1c2ccccc2Sc2ccccc21" have a reported pIC50 of at least 6?
Criterion not met

Check the entry "C=CCOC(=O)C(C)(C)OC(=O)c1cc(-n2c(=O)cc(C(F)(F)F)n(C)c2=O)ccc1Cl" : does pIC50 equal or exceed 6?
Criterion not met

Does the molecule CCCCC(=O)O[C@]1(C(=O)CO)[C@@H](C)C[C@H]2[C@@H]3CCC4=CC(=O)C=C[C@]4(C)[C@@]3(F)[C@@H](O)C[C@@]21C [Betamethasone valerate] have recorded pIC50 that is 6 or more?
Criterion not met

Given "O=C1c2ccccc2C(=O)C1C(=O)C(c1ccccc1)c1ccccc1" , state whether its pIC50 is at least 6.
Criterion met

Could you tell me if the measured pIC50 of CC(C)[N+](C)(CCC(C(N)=O)(c1ccccc1)c1ccccc1)C(C)C [Isopropamide] reaches 6 or more?
Criterion not met

Does "OCc1c2ccccc2cc2ccccc12" have a reported pIC50 of at least 6?
Criterion not met

Could you please find out whether "O=C1c2ccccc2Cc2ccccc21" has pIC50 that meets 6 or exceeds it?
Criterion not met

Given Clc1ccc(CCC(Cn2ccnc2)Sc2c(Cl)cccc2Cl)cc1 (centres unmarked) [Butoconazole nitrate] , state whether its pIC50 is at least 6.
Criterion met

Hello, I need to know if "CN(C)c1ccc(Cc2ccc(N(C)C)cc2)cc1" has measured pIC50 not below 6. Thanks!
Criterion not met

Check if pIC50 >= 6 (inclusive). Item: "CCOC(=O)[C@H](CCc1ccccc1)N[C@H]1CCc2ccccc2N(CC(=O)O)C1=O"
Criterion not met

Would you say "Nc1ccc2c(c1)C(=O)c1ccccc1C2=O" shows pIC50 at minimum 6?
Criterion not met
